target: Cytochrome P450 2D6 (Homo sapiens) (UniProt P10635); test: Cytochrome panel assay with activity outcomes; details: recombinant CYP, pro-luciferin dealkylation, luminescence, p450-cyp2d6; series mostly up to 57.1 µM
Sequence (P10635 whole entry, looked up): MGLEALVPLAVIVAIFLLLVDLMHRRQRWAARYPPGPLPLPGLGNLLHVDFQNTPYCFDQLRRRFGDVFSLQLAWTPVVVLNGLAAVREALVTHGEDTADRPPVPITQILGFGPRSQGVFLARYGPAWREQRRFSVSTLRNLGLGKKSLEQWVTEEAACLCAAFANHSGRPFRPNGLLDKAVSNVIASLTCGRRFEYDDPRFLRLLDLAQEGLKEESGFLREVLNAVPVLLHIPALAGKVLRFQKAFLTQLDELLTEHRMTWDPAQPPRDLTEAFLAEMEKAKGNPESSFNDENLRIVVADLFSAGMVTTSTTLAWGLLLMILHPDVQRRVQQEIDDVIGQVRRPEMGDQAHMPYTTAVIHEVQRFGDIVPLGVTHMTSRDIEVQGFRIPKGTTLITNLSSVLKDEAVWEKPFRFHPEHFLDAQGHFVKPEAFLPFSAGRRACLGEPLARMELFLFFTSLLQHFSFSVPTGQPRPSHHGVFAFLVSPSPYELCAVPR
Hit rate of the full screen: of about 16,000 compounds, about 2,600 (16%) were called active. Roughly 20% stayed inconclusive and do not appear here. Calls follow the shape of the dose curve; as a rule, active = well fitted curve in the direction sought with a large enough effect; inconclusive = small, poorly fitted or top-dose-only effect, or effect the other way; inactive = no such curve, though single readings can be large or run the other way. Only a selection was taken, and actives are over-represented in it overall.
API: response.call in t for active, f for inactive

Check out these entries, answers already filled in.
COMPOUND	SYSTEM UNDER TEST	ASSIGNED LABEL
N[C@H](Cc1ccc(N(CCCl)CCCl)cc1)C(=O)O	Cytochrome P450 2D6 (Homo sapiens) (UniProt P10635)	f
NNC(N)=O	Cytochrome P450 2D6 (Homo sapiens) (UniProt P10635)	f
Clc1cncc(N2CCNCC2)n1	Cytochrome P450 2D6 (Homo sapiens) (UniProt P10635)	f
CN1C2CCC1/C(=C\c1ccccc1)C(=O)/C2=C\c1ccccc1	Cytochrome P450 2D6 (Homo sapiens) (UniProt P10635)	t
Oc1ccc2c3c1O[C@H]1c4[nH]c5c(c4C[C@@]4(O)[C@@H](C2)N(CC2CC2)CC[C@]314)C[C@]1(O)[C@H]2Cc3ccc(O)c4c3[C@@]1(CCN2CC1CC1)[C@@H]5O4	Cytochrome P450 2D6 (Homo sapiens) (UniProt P10635)	f

## Task Could you kindly confirm the outcome this assay logged for `COc1ccc(CNC(=O)/C=C\c2ccc3[nH]cc(CCN(C)C)c3c2)cc1` ?
## Result f

## Task Check the results log: what was the call for `Oc1ccc2c3c1O[C@H]1c4oc5ccccc5c4C[C@]4(O)[C@H](C2)N(CC2CC2)CC[C@@]314` ?
## Result t

## Task Called result for `Cc1nc(-c2ccc(-c3ccc(C(=O)N4CCc5cc6c(cc54)C4(CCN(C)CC4)CO6)cc3)c(C)c2)no1`
## Result t

## Task Query: recorded result category for `O=S1(=O)N(CCN2CC=C(c3c[nH]c4cc(F)ccc34)CC2)c2cccc3c2N1CCC3` in this test
## Result t

## Task Fill in: this test's call for `CC[C@@]1(c2ccc(N)cc2)CCC(=O)NC1=O` is ___
## Result f

## Task What call does the record list for `Oc1ccc2c3c1O[C@H]1c4c(c5ccccc5n4Cc4ccccc4)C[C@]4(O)[C@H](C2)N(CC2CC2)CC[C@@]314` ?
## Result f

## Task Which result was noted for this compound in the test: `OC1(c2ccc(Cl)cc2)CCN(Cc2c[nH]c3ccccc23)CC1`
## Result t

## Task Per the records of this test, what outcome belongs to `NC(N)=Nc1ccc2[nH]c3c(c2c1)C[C@]1(O)[C@@H]2Cc4ccc(O)c5c4[C@]1(CCN2CC1CC1)[C@H]3O5` ?
## Result f

---

target: Cytochrome P450 2D6 (Homo sapiens) (UniProt P10635); assay: Cytochrome panel assay with activity outcomes; conditions: recombinant CYP, pro-luciferin dealkylation, luminescence, p450-cyp2d6; series mostly up to 57.1 µM
Hit rate of the full screen: of about 16,000 compounds, about 2,600 (16%) were called active. Not shown: some 20% with an inconclusive outcome. Calls come from the whole dose curve; as a rule, active = well fitted curve in the direction sought with a large enough effect; inconclusive = small, poorly fitted or top-dose-only effect, or effect the other way; inactive = no such curve, though single readings can be large or run the other way. The sample as a whole holds a higher share of actives than the screen did.
Form entry, call: pick from active, inactive

# count of solved cases: 3
COMPOUND	ASSIGNED LABEL
C[C@@]12C(=O)OC(=O)[C@@]1(C)[C@H]1CC[C@@H]2O1	inactive
C=CCN1C(=O)NC(=O)/C(=C/c2cccn2C)C1=O	inactive
C[C@H](N)[C@H](O)c1ccc(O)c(O)c1	inactive

## Task For O=C(C1CC(=O)N(C2CCCC2)C1)N1CCC2(CC1)OCCO2 (stereo unspecified) , which call appears in the assay record?
## Result inactive

## Task Hi, sorry to bother you, what did the test record for `C[Se]C[C@@H](N)C(=O)O` ?
## Result inactive

## Task Query: recorded result category for COc1ccc(C2NCc3ccc4c(c3-n3cccc32)OCO4)cc1OC (stereo unspecified) in this test
## Result active

---

biological target: Cytochrome P450 2D6 (Homo sapiens) (UniProt P10635); test: Cytochrome panel assay with activity outcomes; conditions: recombinant CYP, pro-luciferin dealkylation, luminescence, p450-cyp2d6; series mostly up to 57.1 µM
Screen size: about 16,000 compounds; about 2,600 (16%) were called active. Another 20% or so got no clear call; they are omitted. Calls come from the whole dose curve; as a rule, active = well fitted curve in the direction sought with a large enough effect; inconclusive = small, poorly fitted or top-dose-only effect, or effect the other way; inactive = no such curve, though single readings can be large or run the other way. What follows is part of a selection rich in actives, with near analogues and random picks from the rest.
Answer with one of the outcomes Yes for active, No for inactive

COMPOUND	ASSIGNED LABEL
CC[C@H]1CN2CC[C@@H]1C[C@H]2[C@@H](O)c1ccnc2ccc(OC)cc12	Yes
CN1[C@@H]2CC[C@H]1CC(O)C2 (stereo partly drawn)	No
C[C@@H]1O[C@@H](O[C@H]2C[C@@H](O)[C@]3(CO)[C@@H]4[C@@H](O)C[C@]5(C)[C@H]([C@@H]6COC(=O)C6)CC[C@@]5(O)[C@H]4CC[C@@]3(O)C2)[C@H](O)[C@H](O)[C@@H]1O	No
c1ccc2c(c1)-c1ccccc1C2N1CC2CCC(CC2)C1	Yes
CCCCCCN=Cc1c(O)n(C)c(=O)n(C)c1=O	No

## Task Entry `N#CCCN` : call = ?
## Result No

## Task Tell me the assay call for `CCCCc1nc2ccccc2c(=O)n1-c1ccccc1[N+](=O)[O-]` please.
## Result No

## Task Outcome? `CC[C@H](C)C(=O)O[C@@H]1[C@H](O)[C@@H]2[C@H](CN3C[C@@H](C)CC[C@@H]3[C@@]2(C)O)[C@@H]2C[C@@]34O[C@@]5(O)[C@@H](OC(=O)[C@](C)(O)CC)CC[C@@]3(C)[C@H]5[C@H](OC(C)=O)[C@@H](OC(C)=O)[C@H]4[C@]12O`
## Result No

## Task Any idea what this test logged for `CNCCc1cnc[nH]1` ?
## Result No

## Task Could you check what this test reported for `c1csc(CN2CCC3(CCNCC3)CC2)n1` ?
## Result No

## Task Dear all, I need the recorded test outcome for `CC(C)[C@@]1(NC(=O)[C@@H]2C[C@H]3c4cccc5[nH]cc(c45)C[C@@H]3N(C)C2)O[C@@]2(O)[C@H]3CCCN3C(=O)[C@H](Cc3ccccc3)N2C1=O` , thank you.
## Result No

## Task Any idea what this test logged for CN1[C@@H]2CC[C@H]1CC(OC(=O)c1cc(Cl)cc(Cl)c1)C2 (stereo partly drawn) ?
## Result Yes

---

biological target: Cytochrome P450 2D6 (Homo sapiens); experiment: Cytochrome panel assay with activity outcomes; conditions: recombinant CYP, pro-luciferin dealkylation, luminescence, p450-cyp2d6; series mostly up to 57.1 µM
The whole screen tested about 16,000 compounds, of which about 2,600 (16%) were called active. Roughly 20% stayed inconclusive and do not appear here. Only a selection was taken, and actives are over-represented in it overall.
READOUT KIND: AC50

// known answers, use as guide
MOLECULE	AC50
C=C1[C@@H]2C[C@@]3([C@H]1O)[C@H]1C[C@@H]4[C@@]5(C)CC[C@H](O)[C@]4([C@H]1N(CC)C5)[C@H]3C[C@H]2O	inactive
COc1cccc(-n2c(O)c(C=NCCN3CCOCC3)c(=O)[nH]c2=O)c1	inactive
C[C@H]1C(=O)O[C@@H]2CCN3CC=C(COC(=O)[C@@](C)(O)[C@@]1(C)O)[C@H]23	inactive
O=C(c1ccco1)N1CCC[C@@]2(CCN(Cc3ccncc3)C2)C1	12.6 µM (active)
Cc1c2ccncc2c(C)c2c1[nH]c1ccccc12	6.31 µM (active)

I'm hoping you can list AC50 for every molecule here, please.
1. O=C(O)[C@@H]1C[C@H]1[C@@H](NP(=O)(c1ccccc1)c1ccccc1)c1ccccc1
2. Cc1noc(C)c1C(=O)N1CCC2(CCCN(CC(C)C)C2)CC1
3. CC(C)COC(=O)OCN1C(=O)CN(CCN2CC(=O)N(COC(=O)OCC(C)C)C(=O)C2)CC1=O
4. Cc1nccc2c1[nH]c1ccccc12
5. O=c1[nH]c(=O)n([C@H]2C[C@H](O)[C@H](CO)O2)cc1/C=C\Br
6. C#C[C@@]1(O)CC[C@@H]2[C@@H]3CCC4=CC(=O)CC[C@@]4(C)[C@H]3CC[C@]21C
7. CN1[C@@H]2CC[C@H]1CC(NC(=O)c1nn(C)c3ccccc13)C2 (stereo not given in full)

## Result
1: inactive; 2: 12.6 µM (active); 3: inactive; 4: 10 µM (active); 5: inactive; 6: inactive; 7: inactive

// for each molecule below, give its AC50
1. CCCCC/C=C\C/C=C\C/C=C\C/C=C\CCCC(=O)Nc1ccc(O)cc1
2. CCOC(=O)c1[nH]c(C)c(C(=O)N2CCC3(CC2)OCCO3)c1C
3. COC(=O)c1cc2c(cn1)[nH]c1ccccc12

## Result
["inactive", "inactive", "inactive"]
